Test: in vitro
Conditions: human, peripheral blood leukocytes
measurement.name: CC50 at 48 h (µg/mL)
Express it in µg/mL; write the number only.

The compound CN1CCC[C@H]1c1cccnc1 showed CC50 at 48 h equal to 7000
